# System: tbaqp2/tbaqp3 null cells
# test_details: microbe, parasite or virus in culture
# Assay type: cell-based, Trypanosoma brucei brucei
# condition_label: Trypanosoma brucei, read-out: EC50, MEAN
metric_name: EC50 (µM)
Please state the figure in µM; there is no need to write the unit.

stdin: Give EC50; test system tbaqp2/tbaqp3 null cells; compound `N=C(N)c1ccc(/N=N/Nc2ccc(C(=N)N)cc2)cc1`
stdout: 0.076

---

# Tested on: tbaqp2/tbaqp3 null cells expressing TbAQP2WT
# test_details: microbe, parasite or virus in culture
# Type: cell-based, Trypanosoma brucei brucei
# condition_label: Trypanosoma brucei, read-out: EC50, MEAN
metric_name: pEC50
FYI, pEC50 means -log10 of a concentration in mol per litre.

stdin: Report pEC50, nothing else, for this molecule: N=C(N)c1ccc(/N=N/Nc2ccc(C(=N)N)cc2)cc1 [Diminazene]
stdout: 7.13

---

# measured_on: TbAQP2/HAPT1 (Trypanosoma brucei brucei)
# test_details: cell-based
# Format: cell-based
# condition_label: HAPT Ki, AVG
# reported pKi; entries follow
Value format note: pKi is -log10 of concentration (mol/L); just state the number.

Some compounds with recorded pKi:
1. N=C(N)c1ccc(/N=N/Nc2ccc(C(=N)N)cc2)cc1 | 4.20
2. Cc1ccc(OCCCCCOc2ccc(C(=N)N)cc2)cc1 | 5.58

Here is the next item to consider.
stdin: Tell me its pKi given N=C(N)c1ccc(O)cc1 [4-hydroxybenzamidine] as the entry.
stdout: 2.54

---

# System: tbaqp2/tbaqp3 null cells expressing TbAQP2 L118W
# test_details: microbe, parasite or virus in culture
# Assay type: cell-based, Trypanosoma brucei brucei
# condition_label: Trypanosoma brucei, read-out: Alamar blue EC50, MEAN
metric_name: pEC50
Scale note: pEC50 = -log10(concentration in M).

stdin: Send back tbaqp2/tbaqp3 null cells expressing TbAQP2 L118W pEC50 of N=C(N)c1ccc(OCCCCCOc2ccc(C(=N)N)cc2)cc1 [Pentamidine] only.
stdout: 7.33

---

# System: tbaqp1-2-3 null cells expressing TbAQP2 position 84, 118 and 218 Trp and Met mutants
# test_details: Drug sensitivity assay (resazurin), pentamidine and SHAM
# Assay type: cell-based, Trypanosoma brucei brucei
# condition_label: +L118M in KO AQP1-3; 3 repeats; read-out: EC50, MEAN
metric_name: pEC50
// field semantics: pEC50 = negative decimal log of concentration (mol/L)

stdin: Quick one: give measured pEC50 for `O=C(NO)c1ccccc1O`
stdout: 4.94

---

Listed here are molecules together with their documented δ(ΔG0).
# measured_on: TbAQP2/HAPT1 (Trypanosoma brucei brucei, UniProt Q6ZXT3)
# test_details: cell-based
# Assay type: cell-based
The figure you give is taken to be in kcal/mol; do not add the unit.

# example entries with known answers
1. CC[n+]1c(-c2ccccc2)c2cc(N)ccc2c2ccc(N)cc21 | 4.71
2. O=c1ccc2[n+]([O-])c3ccc(O)cc3oc-2c1 | 4.97
3. COc1cc(/C=C/C(=O)CC(=O)/C=C/c2ccc(O)c(OC)c2)ccc1O | 5.54
4. N=C(N)c1ccc(OCCCCCOc2ccc(C(=N)N)cc2)cc1 | 0
5. N=C(N)c1ccc(-c2cc3ccc(C(=N)N)cc3[nH]2)cc1 | 3.92

stdin: Check the records and state δ(ΔG0) for `N=C(N)c1ccc(/N=N/Nc2ccc(C(=N)N)cc2)cc1`
stdout: 4.45

stdin: Let me know recorded δ(ΔG0) for `N=C(N)c1cccc(OCCCCCOc2cccc(C(=N)N)c2)c1` , thanks.
stdout: 4.45

---

# Test system: tbaqp1-2-3 null cells expressing TbAQP2 position 84, 118 and 218 Trp and Met mutants
# test_details: Drug sensitivity assay (resazurin), pentamidine and SHAM
# Format: cell-based, Trypanosoma brucei brucei
# condition_label: +L84W/L118W in KO AQP1-3; 3 repeats; read-out: EC50, MEAN
metric_name: EC50 (µM)
Report as a plain number; the unit µM is understood.

stdin: Quote EC50 with test system tbaqp1-2-3 null cells expressing TbAQP2 position 84, 118 and 218 Trp and Met mutants for O=C(NO)c1ccccc1O [SHAM]
stdout: 12.2

---

# measured_on: TbAQP2/HAPT1 (Trypanosoma brucei brucei)
# test_details: cell-based
# Format: cell-based
Classification field: enter y for ΔG0 values not below -6 kcal/mol, n for values below it.

Completed entries (count: 6):
1) Cn1c(-c2ccc(C(=N)N)cc2)ccc1-c1ccc(C(=N)N)cc1 | y
2) c1cc(C2=NCCN2)ccc1OCCCCCOc1ccc(C2=NCCN2)cc1 | n
3) N=C(N)c1ccc(-c2ccc(-c3ccc(C(=N)N)nc3)o2)cn1 | y
4) Cl.Cl.c1cc(-c2ccc(-c3ccc(CCC4=NCCN4)cc3)s2)ccc1CCC1=NCCN1 | n
5) Cl.Cl.c1cc(-c2ccc(-c3ccc(CCC4=NCCN4)cc3)o2)ccc1CCC1=NCCN1 | y
6) N=C(N)c1ccc(OCCCCCOc2ccc(N)cc2)cc1 | n

stdin: In plain terms: is recorded ΔG0 at least -6 kcal/mol for `Cl.N=C(N)c1ccc(OCCCCOc2ccccc2)cc1.O` ?
stdout: n

stdin: State whether the measured ΔG0 reaches -6 kcal/mol, counting equality as reaching it, for `O=c1ccc2[n+]([O-])c3ccc(O)cc3oc-2c1`
stdout: y

---

# Tested on: tbaqp1-2-3 null cells expressing TbAQP2 position 84, 118 and 218 Trp and Met mutants
# test_details: Drug sensitivity assay (resazurin), pentamidine and SHAM
# Assay type: cell-based, Trypanosoma brucei brucei
# condition_label: Trypanosoma brucei, +L218M in aqp1-3 triple KO; 3 repeats; read-out: Alamar blue EC50, MEAN
metric_name: pEC50
Please report pEC50 as the negative decimal logarithm of the molar concentration, giving only the number.

stdin: Give me measured pEC50, please, for this compound: `N=C(N)c1ccc(OCCCCCOc2ccc(C(=N)N)cc2)cc1`
stdout: 9.20

---

# Tested on: tbaqp2/tbaqp3 null cells
# test_details: microbe, parasite or virus in culture
# Type: cell-based, Trypanosoma brucei brucei
# condition_label: read-out: EC50, MEAN
metric_name: pEC50
Scale explanation: pEC50 corresponds to minus log10 of a concentration expressed in moles per litre.

stdin: Indicate the recorded pEC50 value for this molecule: Cl.Cl.NCCS[As](SCCN)c1ccc(Nc2nc(N)nc(N)n2)cc1 [Cymelarsan]
stdout: 7.70

---

# measured_on: TbAQP2/HAPT1 (Trypanosoma brucei brucei, UniProt Q6ZXT3)
# test_details: cell-based
# Assay type: cell-based
# condition_label: Ki value, Mean
Reported values of Ki for individual entries
I only need the number, in µM, no unit after it.

stdin: Recall and state the measured Ki for `N=C(N)c1ccc(OCCCCCOc2ccc(C(=N)N)cc2)cc1` .
stdout: 0.0364

---

# System: tbaqp1-2-3 null cells expressing TbAQP2 position 84, 118 and 218 Trp and Met mutants
# test_details: Drug sensitivity assay (resazurin), pentamidine and SHAM
# Assay type: cell-based, Trypanosoma brucei brucei
# condition_label: Trypanosoma brucei, +L84W in aqp1-3 triple KO; 3 repeats; read-out: Alamar blue EC50, MEAN
metric_name: EC50
Units required after the number.

stdin: Check the records and state EC50 for `N=C(N)c1ccc(OCCCCCOc2ccc(C(=N)N)cc2)cc1`
stdout: 16.1 nM

---

# Tested on: tbaqp2/tbaqp3 null cells expressing TbAQP2WT
# test_details: microbe, parasite or virus in culture
# Type: cell-based, Trypanosoma brucei brucei
# condition_label: Trypanosoma brucei, read-out: Alamar blue EC50, MEAN
metric_name: pEC50
In simple prose, pEC50 is minus the logarithm base ten of a concentration in moles per litre.

stdin: Please look at `N=C(N)c1ccc(OCCCCCOc2ccc(C(=N)N)cc2)cc1` and tell me its recorded pEC50 on tbaqp2/tbaqp3 null cells expressing TbAQP2WT.
stdout: 9.08

---

# measured_on: TbAQP2WT (Trypanosoma brucei brucei, UniProt Q6ZXT3)
# Sequence (Q6ZXT3 whole entry): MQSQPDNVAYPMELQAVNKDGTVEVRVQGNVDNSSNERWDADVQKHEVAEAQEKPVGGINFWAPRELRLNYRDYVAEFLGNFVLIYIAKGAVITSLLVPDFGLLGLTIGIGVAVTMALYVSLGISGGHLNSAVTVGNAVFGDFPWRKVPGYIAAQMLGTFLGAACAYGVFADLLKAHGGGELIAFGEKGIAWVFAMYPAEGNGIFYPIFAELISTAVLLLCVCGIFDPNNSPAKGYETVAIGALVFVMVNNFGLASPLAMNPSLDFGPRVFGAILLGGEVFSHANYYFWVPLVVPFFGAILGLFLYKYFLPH
# test_details: cell-based
metric_name: pEC50
# pEC50 = -log10(concentration in molar units)

stdin: For the compound `N=C(N)c1ccc(OCCCCCOc2ccc(C(=N)N)cc2)cc1` , give its reported pEC50.
stdout: 7.39

---

# measured_on: TbAQP2/HAPT1 (Trypanosoma brucei brucei)
# test_details: cell-based
# Format: cell-based
# condition_label: Ki
metric_name: Ki (µM)
Could you give me the number in µM? Just the number is fine.

1) N=C(N)c1ccc(OCCOCCOc2ccc(C(=N)N)cc2)cc1 [DB1699] | 16.6

stdin: Jot down Ki (TbAQP2/HAPT1 (Trypanosoma brucei brucei)) of N=C(N)c1ccc(-c2ccc(-c3ccc(C(=N)N)cn3)o2)nc1 [DB829] .
stdout: 39.9

stdin: Answer with Ki of CON1CCN=C1Nc1ccc(CCc2ccc(NC3=NCCN3OC)cc2)cc1 [CRMI8] measured for TbAQP2/HAPT1 (Trypanosoma brucei brucei).
stdout: 52.8

---

# Test system: tbaqp2/tbaqp3 null cells expressing TbAQP2WT
# test_details: microbe, parasite or virus in culture
# Format: cell-based, Trypanosoma brucei brucei
# condition_label: read-out: Alamar blue EC50, single repeats
metric_name: EC50 (nM)
Kindly provide the numeric value in nM only, without the unit symbol.

stdin: Report EC50, nothing else, for this compound: N=C(N)c1ccc(OCCCCCOc2ccc(C(=N)N)cc2)cc1 [Pentamidine]
stdout: 1.5
